Test system: UACC-257 melanoma
Assay: NCI tumour cell line growth inhibition, 48 h
parameter measured: TGI

compound=C#CCOC(=O)c1ccccc1O target_under_test="UACC-257 melanoma" parameter_measured=TGI observed_value="> 100 µM"
compound="CC(=O)OC(/C=C1/C=CC(=O)O1)COC(=O)c1ccccc1 (configuration not stated)" target_under_test="UACC-257 melanoma" parameter_measured=TGI observed_value="> 31.2 µM"
compound=CC(C)(C)OC(=O)N(O)[C@@H]1C=C[C@H](n2cnc3c(N)ncnc32)C1 target_under_test="UACC-257 melanoma" parameter_measured=TGI observed_value="> 100 µM"
compound=CN(C)c1ccc(N2Cc3ccccc3OC3=C2C(=O)c2c(O)ccc(O)c2C3=O)cn1 target_under_test="UACC-257 melanoma" parameter_measured=TGI observed_value="1.14 µM"
compound="CC1CN=C(Nc2ccc(F)cc2F)S1 (configuration not stated)" target_under_test="UACC-257 melanoma" parameter_measured=TGI observed_value="> 100 µM"
compound="CC(C)=CCC[C@H](C)[C@@H]1CC[C@]2(C)C3CC[C@]4(OC4(C)C)C(CCCO)[C@]3(C)CC[C@@]12C (some centres not stated)" target_under_test="UACC-257 melanoma" parameter_measured=TGI observed_value="59.9 µM"
compound=O=C(O)C(CP(=O)(O)O)=C(Cl)Cl target_under_test="UACC-257 melanoma" parameter_measured=TGI observed_value="> 100 µM"
compound=CCN(CC)CC(=O)Nc1c(C(N)=O)nnn1Cc1cc(Cl)c(C(=O)c2ccc(Cl)cc2)c(Cl)c1 target_under_test="UACC-257 melanoma" parameter_measured=TGI observed_value="32.6 µM"
compound="CCCN(CCCCC(NC(C)=O)C(=O)NCc1ccccc1)C(=O)N(C)N=O (configuration not stated)" target_under_test="UACC-257 melanoma" parameter_measured=TGI observed_value="> 100 µM"
compound=CC(C)(C)NCc1cc(Nc2ccnc3cc(Cl)ccc23)cc(-c2ccc(Cl)cc2)c1O target_under_test="UACC-257 melanoma" parameter_measured=TGI observed_value="4.11 µM"
compound=O=C1CCCCC/C1=C\c1ccc(F)cc1 target_under_test="UACC-257 melanoma" parameter_measured=TGI observed_value="> 100 µM"
compound="COc1ccc(NC(=O)CC(=O)N2N=C(N3CCCCC3)CC2c2ccccc2)cc1 (configuration not stated)" target_under_test="UACC-257 melanoma" parameter_measured=TGI observed_value="> 100 µM"
compound=COc1cc2c3c(n(CCCCOC(=O)C(F)(F)F)c(=O)c2cc1OC)-c1cc2c(cc1C3=O)OCO2 target_under_test="UACC-257 melanoma" parameter_measured=TGI observed_value="> 100 µM"
compound=Cn1ccnc1C(=O)/C=C/c1ccc(C(=O)Nc2ccc(Cl)cc2)cc1 target_under_test="UACC-257 melanoma" parameter_measured=TGI observed_value="> 33.3 µM"
compound="COc1cc(/C=C2/C(=O)N(C(=O)OC(C)C)C(Cc3cc(OC)c(OC)c(C)c3OC)C(=O)N2Cc2ccccc2)c(OC)c(C)c1OC (configuration not stated)" target_under_test="UACC-257 melanoma" parameter_measured=TGI observed_value="> 100 µM"
compound=O=S(=O)(/C=C/c1ccc(Cl)cc1Cl)Cc1ccccc1CS(=O)(=O)/C=C/c1ccc(Cl)cc1Cl target_under_test="UACC-257 melanoma" parameter_measured=TGI observed_value="> 100 µM"
compound=O=C(CN1CCN(c2ncnc3ccccc23)CC1)Nc1ccc(Cl)cc1C(=O)c1ccccc1Cl target_under_test="UACC-257 melanoma" parameter_measured=TGI observed_value="6.69 µM"
compound="CC1(C)COC(C23C4C5C2C2C3C4C52I)=N1 (configuration not stated)" target_under_test="UACC-257 melanoma" parameter_measured=TGI observed_value="> 100 µM"
compound=OCC(CN1CCCCC1)(CN1CCCCC1)CN1CCCCC1 target_under_test="UACC-257 melanoma" parameter_measured=TGI observed_value="> 100 µM"
compound=Nc1ccccc1CCCC(=O)O target_under_test="UACC-257 melanoma" parameter_measured=TGI observed_value="> 100 µM"
compound=CS(=O)(=O)NNS(=O)(=O)c1cccc([N+](=O)[O-])c1 target_under_test="UACC-257 melanoma" parameter_measured=TGI observed_value="> 100 µM"
compound=Cc1ccc2c(c1)C(=O)/C(=C\c1ccccc1)CCS2(=O)=O target_under_test="UACC-257 melanoma" parameter_measured=TGI observed_value="31.6 µM"

* * *

System: SK-MEL-5 melanoma
Assay: NCI tumour cell line growth inhibition, 48 h
parameter measured: TGI

molecule="O=C1/C(=C/C=C/c2ccccc2)N=C(c2ccccc2)N1C1Nc2cc3c(cc2S1)NC(N1C(=O)/C(=C/C=C/c2ccccc2)N=C1c1ccccc1)S3 (centres undefined)" target_under_test="SK-MEL-5 melanoma" parameter_measured=TGI observed_value="> 100 µM"
molecule="Cc1[nH]c2ccccc2c1C1Cc2ccccc2N1C(=O)/C=C/C=C/c1ccccc1 (centres undefined)" target_under_test="SK-MEL-5 melanoma" parameter_measured=TGI observed_value="> 100 µM"
molecule="CCOP(C)(=O)C(Cc1c[nH]c2ccccc12)C(=O)O (centres undefined)" target_under_test="SK-MEL-5 melanoma" parameter_measured=TGI observed_value="> 100 µM"
molecule=COc1cc(O)c2c(O)c3c(c4c2c1[C@]1(C4)C(C)=CCCC1(C)C)[C@H](O)[C@@]1(O)CC(=O)C(C(N)=O)=C(O)[C@@]1(O)C3=O target_under_test="SK-MEL-5 melanoma" parameter_measured=TGI observed_value="0.399 µM"
molecule=CN(C)CCNC(=O)c1cc2ccccc2c2nc3ccccc3nc12 target_under_test="SK-MEL-5 melanoma" parameter_measured=TGI observed_value="5.5 µM"
molecule="COc1ccccc1C1SCC(=O)N1c1ccc(-n2c(-c3ccccc3)nc3ccccc3c2=O)cc1 (centres undefined)" target_under_test="SK-MEL-5 melanoma" parameter_measured=TGI observed_value="> 100 µM"
molecule="Cc1c(Cl)ccc2c1NC(=O)C2(O)C(C(=O)c1ccccc1)c1ccccc1 (centres undefined)" target_under_test="SK-MEL-5 melanoma" parameter_measured=TGI observed_value="60 µM"
molecule=Nc1ccccc1CCCC(=O)O target_under_test="SK-MEL-5 melanoma" parameter_measured=TGI observed_value="> 100 µM"
molecule=COc1ccc(N(C)S(=O)(=O)c2ccccc2)cc1 target_under_test="SK-MEL-5 melanoma" parameter_measured=TGI observed_value="> 100 µM"

* * *

System: SR leukemia
Assay: NCI tumour cell line growth inhibition, 48 h
parameter measured: TGI (µM)

compound=c1ccc(Cn2cc3c(c2-c2ccccc2)CCc2cnoc2-3)cc1 target_under_test="SR leukemia" parameter_measured=TGI relation_symbol== observed_value=9.28
compound="CCOP(C)(=O)C(Cc1c[nH]c2ccccc12)C(=O)O (stereo not given)" target_under_test="SR leukemia" parameter_measured=TGI relation_symbol=> observed_value=100
compound="COc1ccc(C(=O)OCC2OC(n3cnc4c(=S)nc[nH]c43)C(OC(=O)c3ccc(OC)cc3)C2OC(=O)c2ccc(OC)cc2)cc1 (stereo not given)" target_under_test="SR leukemia" parameter_measured=TGI relation_symbol=> observed_value=100
compound=COc1cc2c3c(n(CCCCOC(=O)C(F)(F)F)c(=O)c2cc1OC)-c1cc2c(cc1C3=O)OCO2 target_under_test="SR leukemia" parameter_measured=TGI relation_symbol== observed_value=13.4
compound=CCCCCCC(=O)OC[n+]1ccc2c(C)c3[nH]c4ccccc4c3c(C)c2c1 target_under_test="SR leukemia" parameter_measured=TGI relation_symbol== observed_value=8.77

* * *

System: SK-MEL-2 melanoma
Experiment: NCI tumour cell line growth inhibition, 48 h
parameter measured: TGI

compound=Cc1ccc(CC(=O)Nc2ccc(NC(=O)/C=C/NC(=O)/C=C/c3ccc(-c4ccccc4)cc3)cc2C(=O)c2ccccc2)cc1 observed_value="5.79 µM"
compound=COC(=O)Nc1nc2ccc(Oc3ccc(NC(=O)Nc4cccc(C(=O)O)c4)cc3)cc2[nH]1 observed_value="> 25 µM"
compound="OC12c3ccccc3C1(N1CCOCC1)CCCCC21OCCCO1 (stereo not given)" observed_value="> 100 µM"
compound=CCOC(=O)c1cc2c(ccc3cc(C(=O)OCC)[nH]c32)[nH]1 observed_value="> 100 µM"
compound="CC1=C(C(=O)Nc2ccc(F)c(Cl)c2)C(c2ccccc2Cl)NC(=S)N1 (stereo not given)" observed_value="> 50 µM"

* * *

Test system: NCI/ADR-RES ovarian
Assay: NCI tumour cell line growth inhibition, 48 h
Listed here: items and their measured TGI.
parameter measured: TGI

molecule=Cn1c2ccccc2c2c(-c3ccccc3)[n+]3ccccc3nc21 target_under_test="NCI/ADR-RES ovarian" parameter_measured=TGI observed_value="> 100 µM"
molecule=O=C1NN(c2ccc(C(=O)O)cc2)C(=O)/C1=C\c1ccc([N+](=O)[O-])o1 target_under_test="NCI/ADR-RES ovarian" parameter_measured=TGI observed_value="> 100 µM"
molecule=C=C1C(=O)O[C@H]2[C@H]1CC/C(COC(=O)CCCCC(=O)OC/C1=C/CC[C@@]3(C)O[C@H]3[C@H]3OC(=O)C(=C)[C@@H]3CC1)=C\CC[C@@]1(C)O[C@@H]21 target_under_test="NCI/ADR-RES ovarian" parameter_measured=TGI observed_value="> 100 µM"
molecule="O=C1CC(c2ccc(N3CCOCC3)cc2)(c2ccsc2)NC(=O)C1Sc1ccccc1Cl (centres undefined)" target_under_test="NCI/ADR-RES ovarian" parameter_measured=TGI observed_value="> 100 µM"
molecule="Cc1ccccc1C1CC(=O)CC(c2ccccc2C)C12C(=O)NC(=O)NC2=O (centres undefined)" target_under_test="NCI/ADR-RES ovarian" parameter_measured=TGI observed_value="> 100 µM"
molecule=C#CCOC(=O)c1ccccc1O target_under_test="NCI/ADR-RES ovarian" parameter_measured=TGI observed_value="> 100 µM"
molecule=O=C(O)CNC(=O)CO/N=C1/C(c2c(O)[nH]c3ccccc23)=Nc2ccccc21 target_under_test="NCI/ADR-RES ovarian" parameter_measured=TGI observed_value="> 100 µM"
molecule=CC[C@H](C)[C@H]1NC(=O)[C@@H](N[C@](C)(O)[C@@H](N)CC(C)C)[C@@H](C)OC(=O)[C@H](Cc2ccc(OC)cc2)N(C)C(=O)[C@@H]2CCCN2C(=O)[C@H](CC(C)C)NC(=O)[C@@H](C)C(=O)[C@H](C(C)C)OC(=O)C[C@@H]1O target_under_test="NCI/ADR-RES ovarian" parameter_measured=TGI observed_value="46.5 µM"
molecule=CN(NC(=O)c1ccco1)C1=NCCN1 target_under_test="NCI/ADR-RES ovarian" parameter_measured=TGI observed_value="> 100 µM"
molecule="O=[N+]([O-])C(Cl)C(Cl)C(Cl)=C(Cl)Cl (centres undefined)" target_under_test="NCI/ADR-RES ovarian" parameter_measured=TGI observed_value="> 73.9 µM"
molecule=OC(c1nc2ccccc2s1)(C(F)(F)F)C(F)(F)F target_under_test="NCI/ADR-RES ovarian" parameter_measured=TGI observed_value="> 100 µM"
molecule="CC(=O)N1c2ccccc2C23CCN(C)CC4C(C)OCC(C4CC2=O)C13 (centres undefined)" target_under_test="NCI/ADR-RES ovarian" parameter_measured=TGI observed_value="> 100 µM"
molecule="CC1CN=C(Nc2ccc(F)cc2F)S1 (centres undefined)" target_under_test="NCI/ADR-RES ovarian" parameter_measured=TGI observed_value="> 100 µM"
molecule=Cc1ccc2c(c1)C(=O)/C(=C\c1ccccc1)CCS2(=O)=O target_under_test="NCI/ADR-RES ovarian" parameter_measured=TGI observed_value="> 52.2 µM"
molecule=COc1cc(/C=C2\C[C@H]3[C@@H]4CC=C5C[C@@H](O)CC[C@]5(C)[C@H]4CC[C@]3(C)[C@H]2O)cc(OC)c1OC target_under_test="NCI/ADR-RES ovarian" parameter_measured=TGI observed_value="> 100 µM"
molecule="Cc1ccc(S(=O)(=O)N2CC3OC(C)(C)OC3C2CO)cc1 (centres undefined)" target_under_test="NCI/ADR-RES ovarian" parameter_measured=TGI observed_value="> 100 µM"
molecule=Cn1cncc1[C@@](N)(c1ccc(Cl)cc1)c1ccc2c(c1)c(-c1cccc(Cl)c1)cc(=O)n2C target_under_test="NCI/ADR-RES ovarian" parameter_measured=TGI observed_value="12 µM"
molecule=COc1cc(NS(C)(=O)=O)ccc1Nc1c2ccc(Cl)cc2nc2c(OC)cccc12 target_under_test="NCI/ADR-RES ovarian" parameter_measured=TGI observed_value="> 49.4 µM"
molecule="CCOP(C)(=O)C(Cc1c[nH]c2ccccc12)C(=O)O (centres undefined)" target_under_test="NCI/ADR-RES ovarian" parameter_measured=TGI observed_value="> 100 µM"

Where do these numbers come from? They come from PubChem BioAssay (NCI).
